- test target: human HER3 receptor on cells (human, UniProt P21860 20-1342)
- Sequence (P21860 20-1342): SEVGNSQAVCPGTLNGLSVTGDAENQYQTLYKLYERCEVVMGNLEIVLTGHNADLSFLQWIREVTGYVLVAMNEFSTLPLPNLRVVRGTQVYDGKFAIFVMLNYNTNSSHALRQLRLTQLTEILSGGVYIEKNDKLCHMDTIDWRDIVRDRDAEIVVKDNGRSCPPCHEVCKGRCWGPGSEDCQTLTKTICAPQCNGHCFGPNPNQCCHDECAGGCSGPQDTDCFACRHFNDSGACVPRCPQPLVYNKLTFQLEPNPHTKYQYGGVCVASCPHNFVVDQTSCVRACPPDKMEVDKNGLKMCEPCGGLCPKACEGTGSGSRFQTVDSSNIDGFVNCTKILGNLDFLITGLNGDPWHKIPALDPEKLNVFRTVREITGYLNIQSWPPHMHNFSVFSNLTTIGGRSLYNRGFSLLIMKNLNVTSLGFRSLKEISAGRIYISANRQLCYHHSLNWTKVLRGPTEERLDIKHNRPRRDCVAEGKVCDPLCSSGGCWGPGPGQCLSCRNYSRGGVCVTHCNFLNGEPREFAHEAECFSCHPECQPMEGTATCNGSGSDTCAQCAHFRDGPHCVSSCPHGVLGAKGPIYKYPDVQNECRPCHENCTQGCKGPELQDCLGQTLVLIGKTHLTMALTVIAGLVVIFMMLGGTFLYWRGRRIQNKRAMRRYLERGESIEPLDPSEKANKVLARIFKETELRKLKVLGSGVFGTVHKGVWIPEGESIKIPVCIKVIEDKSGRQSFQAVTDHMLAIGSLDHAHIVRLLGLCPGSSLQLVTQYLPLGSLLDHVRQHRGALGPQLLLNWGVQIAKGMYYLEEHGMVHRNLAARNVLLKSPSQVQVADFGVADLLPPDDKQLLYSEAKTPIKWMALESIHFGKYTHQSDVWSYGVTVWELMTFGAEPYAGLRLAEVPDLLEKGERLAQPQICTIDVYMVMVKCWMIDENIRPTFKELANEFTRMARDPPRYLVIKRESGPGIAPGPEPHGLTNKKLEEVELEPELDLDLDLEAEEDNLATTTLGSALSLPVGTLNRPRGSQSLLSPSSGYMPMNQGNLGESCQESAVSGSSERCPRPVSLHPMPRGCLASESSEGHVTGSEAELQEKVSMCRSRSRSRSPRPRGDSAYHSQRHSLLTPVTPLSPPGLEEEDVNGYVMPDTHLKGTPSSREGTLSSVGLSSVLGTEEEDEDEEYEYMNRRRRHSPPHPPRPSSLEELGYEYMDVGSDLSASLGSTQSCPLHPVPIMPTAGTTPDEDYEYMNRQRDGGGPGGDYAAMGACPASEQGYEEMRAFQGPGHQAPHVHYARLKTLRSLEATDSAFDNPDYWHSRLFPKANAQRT
- assay text: cell-based or functional assay
quantity kind: % Receptor Internalization

INSERT INTO measurements (binder, result) VALUES
  ('Rab774 (antibody, V domains shown, also called Rab774 monoclonal antibody) VH: QSVEESGGRLVTPGTPLTLTCTVSGIDLSTYAMTWVRRAPGKGLEWLGIINRSSKTYLTDWARGRFTISKTSTTVDLKISSPTTEDTATYFCGRVMSPYSVAGGDLWGPGTLVTVSS VL: QPVLTQSPSASAALGASAKLTCILSSDLSDYTIDWYKHQQGEAPRYLMQLRSDGSYTKGTGVPDRFSGSSSGADRYLVISSVQADDEADYYCGLPYSVEYVFGGGTQLTVT', '60%'),
  ('Rab189 (antibody, V domains shown, also called Rab189 monoclonal antibody) VH: QESLEESGGDLVKPEGTLTLTCKASGIGFGYYYYICWVRQAPGKGLEWIACIYTGISDSTYYATWAKGRFAISKTSSTTVTLQMTSLTAADTATYFCARSDPYYTTTYTNTYPTYWNLWGPGTLVTVSS VL: CAFELTQTPSSVEAAVGGTVTIKCQASQSINNYLAWYQQKTGQPPKLLIYRASTLESGVPSRFKGSGSGTQFTLTISDLECADAATYYCQSYYYSSSNNYYNAFGGGTEVVVK', '55%'),
  ('Rab1210 (antibody, V domains shown, also called Rab1210 monoclonal antibody) VH: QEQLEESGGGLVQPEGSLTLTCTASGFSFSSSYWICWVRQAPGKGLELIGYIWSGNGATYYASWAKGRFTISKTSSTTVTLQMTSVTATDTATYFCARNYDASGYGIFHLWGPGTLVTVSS VL: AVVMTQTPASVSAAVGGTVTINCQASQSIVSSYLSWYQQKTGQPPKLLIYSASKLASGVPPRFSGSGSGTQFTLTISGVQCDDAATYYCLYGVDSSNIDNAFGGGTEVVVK', '62%'),
  ('Rab46 (antibody, V domains shown, also called Rab46 monoclonal antibody) VH: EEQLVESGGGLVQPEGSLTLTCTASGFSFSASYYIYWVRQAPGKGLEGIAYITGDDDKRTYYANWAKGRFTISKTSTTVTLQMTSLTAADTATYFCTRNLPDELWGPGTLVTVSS VL: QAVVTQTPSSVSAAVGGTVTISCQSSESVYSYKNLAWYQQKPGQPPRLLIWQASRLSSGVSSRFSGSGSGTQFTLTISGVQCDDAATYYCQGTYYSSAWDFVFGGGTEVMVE', '39%');
